Experiment: Acute toxicity (oral)
Settings: mouse, in vivo, male ICR-strain mice
PARAMETER: LD50

### Prompt Dear colleague, please send me the reported LD50 for O=C1C=C(/C=C/c2ccccc2)C(O)O1 (stereo not shown) [Compound (1)] when you can.
### Response ≥ 2000 mg/kg

The measurements presented in this section are drawn from patent US4950818A.
